Source listed as paper PMC5975062.

Experiment: Phase 1 plasma pharmacokinetics after single and multiple oral doses
Assay type: in vivo, human
Conditions: human, plasma, oral, 200 mg, plasma t1/2 (apparent terminal), 200 mg bid capsule, fasted, elderly, day 7; geo mean (CV%)
quantity: half-life

Input: What value of half-life has been reported for the following molecule? `CCCOc1ccc([C@H]2CNC(=O)N2c2ccc3[nH]cnc3c2)cc1`
Output: 7.55 h

----------
Experiment: Phase 1 CSF pharmacokinetics
Type: in vivo, human
Details: human, CSF, oral, 100 mg, CSF t1/2, 100 mg bid solution, fed, nonelderly, day 11; geo mean (CV%)
quantity: half-life (h)
Answer format: numeric, h implied, no suffix.

Input: What value of half-life has been reported for the following compound? `CCCOc1ccc([C@H]2CNC(=O)N2c2ccc3[nH]cnc3c2)cc1`
Output: 6.38

----------
Assay: Phase 1 CSF pharmacokinetics
Assay type: in vivo, human
Conditions: human, CSF, oral, 100 mg, CSF concentration, Max (C 3 h), 100 mg bid solution, fed, nonelderly, day 11; geo mean (CV%)
quantity: concentration at 3 h (ng/mL)
Answer format: numeric, ng/mL implied, no suffix.

Input: What value of concentration at 3 h has been reported for the following molecule? `CCCOc1ccc([C@H]2CNC(=O)N2c2ccc3[nH]cnc3c2)cc1`
Output: 6.02

----------
Assay: Phase 1 plasma pharmacokinetics after single and multiple oral doses
Assay type: in vivo, human
Settings: human, plasma, oral, 100 mg, plasma t1/2 (apparent terminal), 100 mg bid solution, fed, nonelderly, day 11; geo mean (CV%)
quantity: half-life (h)
Answer format: numeric, h implied, no suffix.

Input: What value of half-life has been reported for the following compound? `CCCOc1ccc([C@H]2CNC(=O)N2c2ccc3[nH]cnc3c2)cc1`
Output: 3.46

----------
Experiment: Phase 1 plasma pharmacokinetics after single and multiple oral doses
Format: in vivo, human
Settings: human, plasma, oral, mean plasma tmax, single 10–400 mg solution, fasted
quantity: Tmax (min)
Answer format: numeric, min implied, no suffix.

Input: What value of Tmax has been reported for the following compound? `CCCOc1ccc([C@H]2CNC(=O)N2c2ccc3[nH]cnc3c2)cc1`
Output: 30

----------
Experiment: Phase 1 plasma pharmacokinetics after single and multiple oral doses
Format: in vivo, human
Conditions: human, plasma, oral, 100 mg, plasma t1/2,eff (2–12 h postdose), 100 mg bid solution, fed, nonelderly, day 11; geo mean (CV%)
quantity: half-life
Form field: result (number plus unit)

Input: What value of half-life has been reported for the following molecule? `CCCOc1ccc([C@H]2CNC(=O)N2c2ccc3[nH]cnc3c2)cc1`
Output: 2.44 h

----------
Assay: Phase 1 plasma pharmacokinetics after single and multiple oral doses
Type: in vivo, human
Details: human, plasma, oral, terminal plasma t1/2, single doses, across dose range
quantity: half-life

Input: What value of half-life has been reported for the following compound? `CCCOc1ccc([C@H]2CNC(=O)N2c2ccc3[nH]cnc3c2)cc1`
Output: 2 to 8 h

----------
Assay: Phase 1 plasma pharmacokinetics after single and multiple oral doses
Format: in vivo, human
Settings: human, plasma, oral, 200 mg, plasma t1/2,eff (2–12 h postdose), 200 mg bid capsule, fasted, elderly, day 7; geo mean (CV%)
quantity: half-life
Form field: result (number plus unit)

Input: What value of half-life has been reported for the following compound? `CCCOc1ccc([C@H]2CNC(=O)N2c2ccc3[nH]cnc3c2)cc1`
Output: 3.08 h

----------
Test: Phase 1 plasma pharmacokinetics after single and multiple oral doses
Format: in vivo, human
Conditions: human, plasma, oral, 500 mg, plasma tmax, 500 mg bid capsule, fed, nonelderly, day 11; median (min–max)
quantity: Tmax (h)
Answer format: numeric, h implied, no suffix.

Input: What value of Tmax has been reported for the following compound? `CCCOc1ccc([C@H]2CNC(=O)N2c2ccc3[nH]cnc3c2)cc1`
Output: 3
